Molecular target: FGFR4 (Homo sapiens, UniProt P22455)
Sequence (P22455 22-802): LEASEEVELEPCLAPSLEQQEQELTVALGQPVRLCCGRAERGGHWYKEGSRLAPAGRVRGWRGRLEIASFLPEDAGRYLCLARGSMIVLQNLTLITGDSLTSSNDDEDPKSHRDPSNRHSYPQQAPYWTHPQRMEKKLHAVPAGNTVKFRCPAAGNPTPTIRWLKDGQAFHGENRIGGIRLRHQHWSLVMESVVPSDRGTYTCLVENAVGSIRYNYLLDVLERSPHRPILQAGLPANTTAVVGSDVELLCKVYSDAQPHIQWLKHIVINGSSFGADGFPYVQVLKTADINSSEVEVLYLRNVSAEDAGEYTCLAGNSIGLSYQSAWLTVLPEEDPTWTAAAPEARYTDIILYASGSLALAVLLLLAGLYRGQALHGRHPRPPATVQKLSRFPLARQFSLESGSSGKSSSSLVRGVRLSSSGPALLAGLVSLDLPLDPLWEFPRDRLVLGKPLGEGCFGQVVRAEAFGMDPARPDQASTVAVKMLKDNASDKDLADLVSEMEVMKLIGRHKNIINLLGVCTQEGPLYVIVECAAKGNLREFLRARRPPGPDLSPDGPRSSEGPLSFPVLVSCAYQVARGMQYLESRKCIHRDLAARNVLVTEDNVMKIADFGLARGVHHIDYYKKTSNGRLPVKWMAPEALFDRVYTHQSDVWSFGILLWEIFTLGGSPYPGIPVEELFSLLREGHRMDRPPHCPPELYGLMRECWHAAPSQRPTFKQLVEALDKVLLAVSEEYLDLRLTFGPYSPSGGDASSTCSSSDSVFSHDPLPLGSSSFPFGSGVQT
pIC50: −log10 of the molar value.
Label scheme for pIC50: lower than 7 is class 0, 7 and above is class 1.

{"compound": "C=CC(=O)N[C@H]1COC[C@H]1Nc1ncc2cc(-c3c(Cl)c(OC)cc(OC)c3Cl)nc(N3CCC3)c2n1", "label value": "class 1"}
{"compound": "C=CC(=O)N[C@H]1COC[C@H]1Nc1ncc2cc(-c3c(Cl)c(OC)cc(OC)c3Cl)nc(-c3cnn(C)c3)c2n1", "label value": "class 1"}
{"compound": "C=CC(=O)N[C@H]1COC[C@H]1Nc1ncc2cc(-c3cccc(OC)c3F)nc(NC)c2n1", "label value": "class 0"}
{"compound": "C=CC(=O)N[C@H]1COC[C@H]1Nc1ncc2cc(-c3c(Cl)c(OC)cc(OC)c3Cl)nc(NC[C@H]3CCCO3)c2n1 [Example 438A]", "label value": "class 1"}
{"compound": "C=CC(=O)Nc1cn(C)nc1Nc1ncc2cc(-c3c(Cl)c(OC)cc(OC)c3Cl)ncc2n1", "label value": "class 1"}
